FYI, the data here is from patent US6048882A.

Test system: experimental hepatopathy models prepared by D-galactosamine administration
assayInfo: Inhibitory action on hepatopathy in hepatopathy models by D-galactosamine (serum GPT and GOT)
Format: in vivo, Wistar strain male mice
conditionSummary: iv, 24 h; lipid emulsion, i.v., dose 10 μg/kg, 2 hours after D-galactosamine; read-out: GOT inhibition
Counter-ions that a name gives are not always drawn.
# if value of inhibition in vivo at 0.01 mg/kg reaches 40%, tag Satisfied; if it stays below, tag Not satisfied

Example entries and their recorded answers appear below.
{"compound": "CC(C)=CCC/C(C)=C/CC/C(C)=C/CC/C(C)=C/CC/C(C)=C/CNCc1ccc2c(c1)OCO2 [Compound 2, hydrochloride]", "targetEntity": "experimental hepatopathy models prepared by D-galactosamine administration", "qualitativeLabel": "Not satisfied"}
{"compound": "CC(C)=CCC/C(C)=C/CC/C(C)=C/CC/C(C)=C/CC/C(C)=C/CC/C(C)=C/CC/C(C)=C/CC/C(C)=C/CNCc1ccc2c(c1)OCO2 [Compound 5, hydrochloride]", "targetEntity": "experimental hepatopathy models prepared by D-galactosamine administration", "qualitativeLabel": "Not satisfied"}
{"compound": "CC(C)=CCC/C(C)=C/CC/C(C)=C/CC/C(C)=C/CC/C(C)=C/CC/C(C)=C/CC/C(C)=C/CC/C(C)=C/CC/C(C)=C/CC/C(C)=C/CNCc1ccc2c(c1)OCO2 [Compound 20, N-decaprenylpiperonylamine hydrochloride]", "targetEntity": "experimental hepatopathy models prepared by D-galactosamine administration", "qualitativeLabel": "Satisfied"}
{"compound": "CC(C)=CCC/C(C)=C/CC/C(C)=C/CC/C(C)=C/CC/C(C)=C/CC/C(C)=C/CC/C(C)=C/CNCc1ccc2c(c1)OCO2 [Compound 4, hydrochloride]", "targetEntity": "experimental hepatopathy models prepared by D-galactosamine administration", "qualitativeLabel": "Not satisfied"}

// switching to the query compound
Check this compound for inhibition in vivo at 0.01 mg/kg at or above 40%: CC(C)=CCC/C(C)=C/CC/C(C)=C/CC/C(C)=C/CC/C(C)=C/CC/C(C)=C/CNCc1ccc2c(c1)OCO2 [Compound 3, hydrochloride]
Not satisfied
